Each recorded value in this set is attributed to PubChem BioAssay (Tox21).

- test.description: qHTS RealTime-Glo MT Cell Viability Assay in HEK293 cells - 16 hour (AID 1224872); note: nearly all actives have a fitted effect of over 50% in size; note: potency is the fitted concentration of half-maximal effect
- conditions.used: RealTime-Glo luminescence; series mostly up to 76.8 µM
Inconclusive results are not listed. Active and inactive are the calls of the source. Calls come from the whole dose curve; as a rule, active = well fitted cell-killing curve with a large enough effect in the repeat runs; inconclusive = weak or mixed curves, or effect the other way; inactive = flat fitted curve, though single readings scatter.
outcome.measure: Potency

Recorded results for 4 molecules are shown here.
CCN(CC)CCNC(=O)c1c(C)[nH]c(/C=C2\C(=O)Nc3ccc(F)cc32)c1C | 10.7 µM (active)
CSc1ccc2c(c1)C(N1CCN(C)CC1)Cc1ccccc1S2 (stereo not given) | inactive
C/C=C1/C(=O)C[C@H]2[C@@H]3CCC4=CC(=O)CC[C@]4(C)[C@H]3CC[C@]12C | 43.5 µM (active)
CC(=O)OCC(C)OC(C)=O (stereo not given) | inactive

Potency measured on `COc1cc(/C=C/C(=O)O[C@H]2CC[C@]34C[C@]35CC[C@]3(C)[C@@H]([C@H](C)CCC=C(C)C)CC[C@@]3(C)[C@@H]5CC[C@H]4C2(C)C)ccc1O` = inactive

Potency measured on `O=C(O)c1cc(O)c2c(c1)C(=O)c1cccc(O)c1C2=O` = inactive

Potency measured on `CCCCCOC(=O)CCCC` = inactive

Potency measured on `CCCCCCCCCCCCCCCC[N+](C)(C)CCN(Cc1ccc(OC)cc1)c1ncccn1` = 1.34 µM (active)

Potency measured on `CCN(C(=O)c1cc(C)cc(OC[C@H](C)Nc2ccncc2)c1)C(C)C` = inactive

Potency measured on `CC(=O)SC[C@@H](Cc1ccccc1)C(=O)NCC(=O)OCc1ccccc1` = inactive

* * *

- test.description: qHTS RealTime-Glo MT Cell Viability Assay in HepG2 cells - 32 hour (AID 1224877); note: nearly all actives have a fitted effect of over 55% in size
- conditions.used: RealTime-Glo luminescence; series mostly up to 76.8 µM
Inconclusive results are not listed. Activity calls are given as the source filed them. The call rests on the fitted dose curve; in most records, active means well fitted cell-killing curve with a large enough effect in the repeat runs; inconclusive means weak or mixed curves; inactive means flat fitted curve, though single readings scatter.
Form entry, call: pick from 1 = active, -1 = inactive

Study these solved cases before continuing.
O=[N+]([O-])c1cc(Cl)c(Cl)c(Cl)c1Cl | -1
COc1cc(-c2ccc(N=C=O)c(OC)c2)ccc1N=C=O | -1
COc1cccc2c1C(=O)c1c(O)c3c(c(O)c1C2=O)C[C@@](O)(C(=O)CO)C[C@@H]3O[C@H]1C[C@H](N)[C@H](O[C@@H]2CCCCO2)[C@H](C)O1 | 1
O=Cc1cc(O)ccc1Br | -1
CCCCCCCCn1sc(Cl)c(Cl)c1=O | 1
Cc1cc(=O)oc2cc(N(C)C)ccc12 | -1
CCCCCCCC/C=C/CCCCCCCC1=NCCN1CCO | 1
CC(C)OC(=O)c1cc2c(OCC(O)CNC(C)(C)C)cccc2[nH]1 (centres undefined) | -1
c1ccc(CSCc2ccccc2)cc1 | -1
CCCCCCCCCCCCc1ccc(O)cc1 | 1

Now for another entry.
Short answer needed: outcome of this test for `Cn1cc(C(=O)[C@@H]2CCc3nc[nH]c3C2)c2ccccc21` ?
-1

* * *

- system: Cytochrome P450 2C9 (Homo sapiens) (UniProt P11712)
- Sequence (P11712 whole entry, looked up): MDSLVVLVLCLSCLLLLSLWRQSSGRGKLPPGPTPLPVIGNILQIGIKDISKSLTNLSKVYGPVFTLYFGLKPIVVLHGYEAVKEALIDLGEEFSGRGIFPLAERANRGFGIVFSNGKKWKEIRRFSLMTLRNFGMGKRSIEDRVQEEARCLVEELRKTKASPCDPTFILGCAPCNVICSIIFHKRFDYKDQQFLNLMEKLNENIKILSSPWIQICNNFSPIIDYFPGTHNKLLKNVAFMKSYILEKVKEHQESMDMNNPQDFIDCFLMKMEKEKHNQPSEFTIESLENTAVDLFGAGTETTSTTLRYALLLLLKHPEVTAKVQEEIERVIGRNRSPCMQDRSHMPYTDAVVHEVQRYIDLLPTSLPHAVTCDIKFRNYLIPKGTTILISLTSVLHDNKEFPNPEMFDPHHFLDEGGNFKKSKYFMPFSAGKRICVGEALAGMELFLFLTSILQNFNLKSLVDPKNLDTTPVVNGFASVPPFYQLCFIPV
- test.description: Cytochrome P450 Family 2 Subfamily C Member 9 (CYP2C9) small molecule antagonists: luciferase reporter qHTS assay (AID 1671198); note: nearly all actives have a fitted effect of over 50% in size
- conditions.used: P450-Glo CYP2C9 enzyme assay, luciferin luminescence; series mostly up to 53 µM
Records with an inconclusive call do not appear. The source made the active and inactive calls. Calls come from the whole dose curve; as a rule, active = well fitted inhibition curve with a large enough effect in the repeat runs; inconclusive = weak or mixed curves; inactive = no such curve, though single readings can be large or run the other way.
Form entry, call: pick from yes (1) (active), no (0) (inactive)

O=Cc1cc(O)ccc1Br | yes (1)

Short answer needed: outcome of this test for `NC(=NCCCCCCN=C(N)/N=C(\N)Nc1ccc(Cl)cc1)/N=C(\N)Nc1ccc(Cl)cc1` ?
yes (1)

Short answer needed: outcome of this test for `O=S1(=O)CC(Cl)(Cl)C(Cl)(Cl)C1` ?
yes (1)

Short answer needed: outcome of this test for `N=C1N=C(N)c2ccccc21` ?
no (0)

* * *

- test.description: qHTS RealTime-Glo MT Cell Viability Assay in HepG2 cells - 0 hour (AID 1224889); note: nearly all actives have a fitted effect of over 50% in size
- conditions.used: RealTime-Glo luminescence; series mostly up to 76.8 µM
Inconclusive results are not listed. The source made the active and inactive calls. The call rests on the fitted dose curve; in most records, active means well fitted cell-killing curve with a large enough effect in the repeat runs; inconclusive means weak or mixed curves, or effect the other way; inactive means flat fitted curve, though single readings scatter.
Form entry, call: pick from active, inactive

Study these solved cases before continuing.
Cc1onc(-c2ccccc2Cl)c1C(=O)N[C@@H]1C(=O)N2[C@@H]1SC(C)(C)[C@@H]2C(=O)O | inactive
Oc1ccc2cc(SSc3ccc4cc(O)ccc4c3)ccc2c1 | inactive
CCCN(CCC)C(=O)C(CCC(=O)OCCCN1CCN(CCOC(=O)Cc2c(C)n(C(=O)c3ccc(Cl)cc3)c3ccc(OC)cc23)CC1)NC(=O)c1ccccc1 (stereo not given) | inactive
O=c1[nH]sc2ccccc12 | inactive
Nc1ccc2c3c(cccc13)-c1ccccc1-2 | inactive
CCC1=C[C@@H]2CN(C1)Cc1c([nH]c3ccccc13)[C@@](C(=O)OC)(c1cc3c(cc1OC)N(C)[C@H]1[C@@](O)(C(=O)OC)[C@H](OC(C)=O)[C@]4(CC)C=CCN5CC[C@]31[C@@H]54)C2 | inactive
CCC(C)(C)C1CCCCC1OC(C)=O (stereo not given) | inactive
C[C@]12CCC(=O)C=C1CC[C@@H]1[C@@H]2[C@@H](O)C[C@@]2(C)[C@H]1CC[C@]2(O)C(=O)COC(=O)CCC(=O)O | active

Short answer needed: outcome of this test for `NNc1nc(-c2ccccc2)cs1` ?
inactive

Short answer needed: outcome of this test for `Clc1ccccc1C(c1ccccc1)(c1ccccc1)n1ccnc1` ?
inactive

Short answer needed: outcome of this test for `O=C1c2ccccc2Cc2ccccc21` ?
inactive

Short answer needed: outcome of this test for `CCCCCCCCCCn1cc[n+](CCCCCCCCCC)c1C` ?
inactive

Short answer needed: outcome of this test for CC(C)(C)C(=O)OCOC(=O)C1N2C(=O)CC2S(=O)(=O)C1(C)C (stereo not given) ?
inactive

Short answer needed: outcome of this test for `CN(C)C(=O)C1(N2CCCCC2)CCN(CC[C@@]2(c3ccc(Cl)c(Cl)c3)CN(C(=O)c3ccccc3)CCO2)CC1` ?
inactive

Short answer needed: outcome of this test for `Cc1cc(=O)oc2cc(N(C)C)ccc12` ?
inactive

Short answer needed: outcome of this test for `CCCCCOc1ccccc1/C(=C\SC)n1ccnc1` ?
inactive

Short answer needed: outcome of this test for `O=C(OCC(COC(=O)c1ccccc1)(COC(=O)c1ccccc1)COC(=O)c1ccccc1)c1ccccc1` ?
inactive

Short answer needed: outcome of this test for COC(=O)C1=C(C)NC(C)=C(C(=O)OCC(C)C)C1c1ccccc1[N+](=O)[O-] (stereo not given) ?
active

* * *

- test.description: qHTS assay to identify small molecule antagonists of the farnesoid-X-receptor (FXR) signaling pathway - cell viability counter screen (AID 743221); note: nearly all actives have a fitted effect of over 50% in size
- conditions.used: FXR-bla HEK293T viability, CellTiter-Glo luminescence, 16 h; series mostly up to 62.6 µM
Results filed as inconclusive are left out. Active and inactive are the calls of the source. The call rests on the fitted dose curve; in most records, active means well fitted cell-killing curve with a large enough effect in the repeat runs (not every such curve was filed as active); inconclusive means weak or mixed curves, or effect the other way; inactive means no such curve, though single readings can be large or run the other way.
Form entry, call: pick from active, inactive

Study these solved cases before continuing.
OCCN1CCN(CC/C=C2/c3ccccc3Sc3ccc(C(F)(F)F)cc32)CC1 | active
OCc1c[nH]c2ccccc12 | inactive
CCCCC(CC)COC(=O)c1ccccc1C(=O)O (centres undefined) | inactive
COc1cccc2c1C(=O)c1c(O)c3c(c(O)c1C2=O)C[C@@](O)(C(=O)CO)C[C@@H]3O[C@H]1C[C@H](N)[C@H](O[C@@H]2CCCCO2)[C@H](C)O1 | inactive
Cc1cc(CCN2CCN(c3nsc4ccccc34)CC2)cc2c1NC(=O)CC2(C)C | active

Now for another entry.
Short answer needed: outcome of this test for CCCN(CCC)C(=O)C(CCC(=O)OCCCN1CCN(CCOC(=O)Cc2c(C)n(C(=O)c3ccc(Cl)cc3)c3ccc(OC)cc23)CC1)NC(=O)c1ccccc1 (centres undefined) ?
active

* * *

- test.description: qHTS assay to identify small molecule antagonists of the estrogen receptor beta (ER-beta) signaling pathway - cell viability counter screen (AID 1259382); note: nearly all actives have a fitted effect of over 55% in size
- conditions.used: ER-beta-UAS-bla HEK293T viability, CellTiter-Glo luminescence, 16 h; series mostly up to 92.4 µM
Inconclusive results are not listed. Calls of active or inactive are those of the source. The call rests on the fitted dose curve; in most records, active means well fitted cell-killing curve with a large enough effect in the repeat runs; inconclusive means weak or mixed curves; inactive means flat fitted curve, though single readings scatter.
Form entry, call: pick from active, inactive

O=[N+]([O-])c1cc(Cl)c(Cl)c(Cl)c1Cl | inactive
CN(C)CCCOC1(Cc2ccccc2)CCCCCC1 | inactive
Cc1nc(-c2ccc3c(c2)CCN(CCC2CCC(NC(=O)/C=C/c4ccc(F)cc4)CC2)CC3)no1 (stereo not given) | inactive

Short answer needed: outcome of this test for `O=C(OCC(COC(=O)c1ccccc1)(COC(=O)c1ccccc1)COC(=O)c1ccccc1)c1ccccc1` ?
inactive

Short answer needed: outcome of this test for `O=Cc1cc(O)ccc1Br` ?
inactive

Short answer needed: outcome of this test for `CCCCCCCC[P+](CCCCCCCC)(CCCCCCCC)CCCCCCCC` ?
active

Short answer needed: outcome of this test for `CC[C@H](c1ccc(O)cc1)[C@@H](CC)c1ccc(O)cc1` ?
inactive

Short answer needed: outcome of this test for `CCCC/C=C/CCCCO` ?
inactive

Short answer needed: outcome of this test for `CCCCCCCC/C=C\CCCCCCCCOCCO` ?
active

Short answer needed: outcome of this test for `CCCCCCCCCCC=O` ?
inactive

Short answer needed: outcome of this test for `O=CC=C(c1ccccc1)c1ccccc1` ?
active

Short answer needed: outcome of this test for `CC/C(=C(\c1ccc(O)cc1)c1ccc(OCCN(C)C)cc1)c1ccccc1` ?
active

Short answer needed: outcome of this test for `OCc1c[nH]c2ccccc12` ?
inactive

Short answer needed: outcome of this test for `CCCCCCCCCOC(=O)c1ccc(O)cc1` ?
active

Short answer needed: outcome of this test for `Cc1onc(-c2ccccc2Cl)c1C(=O)N[C@@H]1C(=O)N2[C@@H]1SC(C)(C)[C@@H]2C(=O)O` ?
inactive

Short answer needed: outcome of this test for CCC1OCC(COc2ccc(Oc3ccccc3)cc2)O1 (stereo not given) ?
inactive

Short answer needed: outcome of this test for CCCCC(CC)CN=C(N)NC(N)=NCCCCCCN=C(N)NC(N)=NCC(CC)CCCC (stereo not given) ?
active
